# assayed.target: human cannabis CB1 receptor (Homo sapiens, UniProt P21554)
# Construct: expressed in transfected cells; host or cells: human embryonic kidney (HEK) cells, Semliki Forest Virus system, membrane preparation
# Sequence (P21554 whole entry): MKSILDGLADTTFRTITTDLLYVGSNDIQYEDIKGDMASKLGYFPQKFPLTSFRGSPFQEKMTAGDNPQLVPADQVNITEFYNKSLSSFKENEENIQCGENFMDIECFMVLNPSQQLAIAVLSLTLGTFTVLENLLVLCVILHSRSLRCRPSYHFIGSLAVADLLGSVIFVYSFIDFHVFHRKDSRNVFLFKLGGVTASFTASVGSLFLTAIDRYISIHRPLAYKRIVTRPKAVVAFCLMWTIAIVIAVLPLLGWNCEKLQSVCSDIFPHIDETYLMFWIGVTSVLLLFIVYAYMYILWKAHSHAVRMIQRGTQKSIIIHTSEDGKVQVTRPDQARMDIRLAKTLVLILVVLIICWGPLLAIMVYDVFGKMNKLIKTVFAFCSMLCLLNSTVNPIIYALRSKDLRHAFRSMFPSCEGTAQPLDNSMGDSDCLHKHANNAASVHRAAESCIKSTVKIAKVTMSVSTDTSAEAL
# test.protocol: Affinity for cannabinoid CB1 receptors, [3H]-CP-55,940 radioligand binding on HEK cell membranes

| mol.smiles | value.units | Ki |
| --- | --- | --- |
| COCCOc1ncc(C(=O)NC[C@](C)(O)C2CC2)nc1-c1ccc(Cl)cc1 | nM | 47.5 |
